- condition-summary: in acetic acid, 298.15 K
experimental-readout: solubility (mole fraction)
// print number alone

Kindly note the recorded solubility (mole fraction) for "N#Cc1cccc([N+](=O)[O-])c1" , which is 0.04

====

- condition-summary: in methanol, 278.15 K
experimental-readout: solubility (mole fraction)
// print number alone

Kindly note the recorded solubility (mole fraction) for "N#Cc1cccc([N+](=O)[O-])c1" , which is 0.0041

====

- condition-summary: in ethyl acetate, 313.15 K
experimental-readout: solubility (mole fraction)
// print number alone

Kindly note the recorded solubility (mole fraction) for "N#Cc1cccc([N+](=O)[O-])c1" , which is 0.166

====

- condition-summary: in isobutanol, 283.15 K
experimental-readout: solubility (mole fraction)
// print number alone

Kindly note the recorded solubility (mole fraction) for "N#Cc1cccc([N+](=O)[O-])c1" , which is 0.00207

====

- condition-summary: in toluene, 313.15 K
experimental-readout: solubility (mole fraction)
// print number alone

Kindly note the recorded solubility (mole fraction) for "N#Cc1cccc([N+](=O)[O-])c1" , which is 0.0982

====

- condition-summary: in cyclohexane, 313.15 K
experimental-readout: solubility (mole fraction)
// print number alone

Kindly note the recorded solubility (mole fraction) for "N#Cc1cccc([N+](=O)[O-])c1" , which is 0.00153

====

- condition-summary: in isopropanol, 298.15 K
experimental-readout: solubility (mole fraction)
// print number alone

Kindly note the recorded solubility (mole fraction) for "N#Cc1cccc([N+](=O)[O-])c1" , which is 0.00446

====

- condition-summary: in isopropanol, 278.15 K
experimental-readout: solubility (mole fraction)
// print number alone

Kindly note the recorded solubility (mole fraction) for "N#Cc1cccc([N+](=O)[O-])c1" , which is 0.0017

====

- condition-summary: in acetone, 303.15 K
experimental-readout: solubility (mole fraction)
// print number alone

Kindly note the recorded solubility (mole fraction) for "N#Cc1cccc([N+](=O)[O-])c1" , which is 0.164

====

- condition-summary: in n-butanol, 278.15 K
experimental-readout: solubility (mole fraction)
// print number alone

Kindly note the recorded solubility (mole fraction) for "N#Cc1cccc([N+](=O)[O-])c1" , which is 0.00233

====

- condition-summary: in n-butanol, 293.15 K
experimental-readout: solubility (mole fraction)

Kindly note the recorded solubility (mole fraction) for "N#Cc1cccc([N+](=O)[O-])c1" , which is 0.00428

====

- condition-summary: in cyclohexane, 308.15 K
experimental-readout: solubility (mole fraction)

Kindly note the recorded solubility (mole fraction) for "N#Cc1cccc([N+](=O)[O-])c1" , which is 0.00121

====

- condition-summary: in acetone, 308.15 K
experimental-readout: solubility (mole fraction)

Kindly note the recorded solubility (mole fraction) for "N#Cc1cccc([N+](=O)[O-])c1" , which is 0.187

====

- condition-summary: in toluene, 298.15 K
experimental-readout: solubility (mole fraction)
// print number alone

Kindly note the recorded solubility (mole fraction) for "N#Cc1cccc([N+](=O)[O-])c1" , which is 0.0557

====

- condition-summary: in acetic acid, 313.15 K
experimental-readout: solubility (mole fraction)
// print number alone

Kindly note the recorded solubility (mole fraction) for "N#Cc1cccc([N+](=O)[O-])c1" , which is 0.0608

====

- condition-summary: in acetonitrile, 283.15 K
experimental-readout: solubility (mole fraction)
// print number alone

Kindly note the recorded solubility (mole fraction) for "N#Cc1cccc([N+](=O)[O-])c1" , which is 0.0565

====

- condition-summary: in n-butanol, 303.15 K
experimental-readout: solubility (mole fraction)
// print number alone

Kindly note the recorded solubility (mole fraction) for "N#Cc1cccc([N+](=O)[O-])c1" , which is 0.00683

====

- condition-summary: in ethyl acetate, 308.15 K
experimental-readout: solubility (mole fraction)
// print number alone

Kindly note the recorded solubility (mole fraction) for "N#Cc1cccc([N+](=O)[O-])c1" , which is 0.135

====

- condition-summary: in acetonitrile, 278.15 K
experimental-readout: solubility (mole fraction)
// print number alone

Kindly note the recorded solubility (mole fraction) for "N#Cc1cccc([N+](=O)[O-])c1" , which is 0.0473

Ref: BigSolDB 2.1
